Listed next: entries and their corresponding Kd.
Molecular target: T1, EsCas13d, nuclease-dead (Eubacterium siraeum, UniProt B0MS50, R295A;H300A;R849A;H854A)
T1 sequence: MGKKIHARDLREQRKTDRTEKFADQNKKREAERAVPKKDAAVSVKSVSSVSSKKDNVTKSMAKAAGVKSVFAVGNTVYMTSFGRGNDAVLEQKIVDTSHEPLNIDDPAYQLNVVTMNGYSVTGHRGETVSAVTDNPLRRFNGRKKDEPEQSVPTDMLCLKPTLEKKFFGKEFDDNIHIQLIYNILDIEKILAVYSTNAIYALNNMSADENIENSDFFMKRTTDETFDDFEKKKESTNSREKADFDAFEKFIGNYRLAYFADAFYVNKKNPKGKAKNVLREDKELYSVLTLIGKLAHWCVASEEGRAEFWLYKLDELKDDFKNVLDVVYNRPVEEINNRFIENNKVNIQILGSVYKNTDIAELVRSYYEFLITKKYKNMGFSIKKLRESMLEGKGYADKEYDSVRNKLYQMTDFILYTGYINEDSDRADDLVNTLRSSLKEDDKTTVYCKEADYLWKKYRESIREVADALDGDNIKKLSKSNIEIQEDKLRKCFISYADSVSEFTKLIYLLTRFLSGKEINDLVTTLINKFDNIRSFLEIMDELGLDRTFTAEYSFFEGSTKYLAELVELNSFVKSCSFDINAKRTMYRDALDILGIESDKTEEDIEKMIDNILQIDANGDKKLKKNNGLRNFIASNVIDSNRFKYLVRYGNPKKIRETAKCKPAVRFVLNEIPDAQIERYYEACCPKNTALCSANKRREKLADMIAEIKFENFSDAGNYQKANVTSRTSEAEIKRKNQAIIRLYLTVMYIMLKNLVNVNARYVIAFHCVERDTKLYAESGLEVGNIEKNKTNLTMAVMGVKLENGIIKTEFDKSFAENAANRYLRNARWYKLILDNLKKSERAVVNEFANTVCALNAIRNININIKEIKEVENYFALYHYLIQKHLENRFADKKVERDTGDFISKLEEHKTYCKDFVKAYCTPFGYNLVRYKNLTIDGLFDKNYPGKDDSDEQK
Assay: crRNA (strand 1, pre-loaded); Mg2+; 40 mM Tris-HCl pH 7.5, 150 mM NaCl, 6 mM MgCl2, 1 mM DTT, 0.1% Tween-20, 0.2 mg/ml BSA; 25 C; 10 min per concentration, then washed
Settings: tags: His6-TwinStrep-SUMO cleaved; N-terminal SNAP kept (SNAP-Surface 488); label: 3' end held by stalled T7 RNA polymerase
Note: unit nM is implicit; provide only the numeric part.

Below: 3 binders and their reported Kd.
target 2 MT 5'PFS GGU 3'PFS UAU (mixed) RNA 1: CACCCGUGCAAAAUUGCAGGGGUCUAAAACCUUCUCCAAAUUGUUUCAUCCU RNA 2: GGGAAUGGAUCCACAUCUACGAAUUCGGUAGGAUGAAACAAUUUGGAGAAGUAUAGAUCGGAAGAGCACACGU: 17.6
target 2 MT 5'PFS GCC 3'PFS CUU (mixed) RNA 1: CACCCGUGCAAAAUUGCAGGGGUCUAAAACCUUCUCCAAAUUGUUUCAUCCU RNA 2: GGGAAUGGAUCCACAUCUACGAAUUCGCCAGGAUGAAACAAUUUGGAGAAGCUUAGAUCGGAAGAGCACACGU: 10.5
target 3 U2A,A12U (mixed) RNA 1: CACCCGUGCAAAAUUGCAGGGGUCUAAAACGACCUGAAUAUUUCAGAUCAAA RNA 2: GGGAAUGGAUCCACAUCUACGAAUUCGUUUUUGAUCUGAUAUAUUCAGGACUGCAGAUCGGAAGAGCACACGU: 79

Consider the additional binder presented here.
input: Look at this binder and give its reported Kd. target 1 MT 5'PFS GCU 3'PFS ACC (mixed) RNA 1: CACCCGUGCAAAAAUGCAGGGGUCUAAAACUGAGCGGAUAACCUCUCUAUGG RNA 2: GGGAAUGGAUCCACAUCUACGAAUUCGCUCCAUAGAGAGGUUAUCCGCUCAACCAGAUCGGAAGAGCACACGU
output: 43
